Reference source: paper PMC12365674

tested on: LPS-induced B lymphocytes; assay: Anti-proliferative activity against LPS-induced B lymphocytes (CCK-8); format: cell-based, mouse; details: induced proliferation of B lymphocytes (LPS); CCK-8; read-out: B cells IC50
Assay readout: pIC50
The scale used: pIC50 is minus the common logarithm of the concentration in molar units.

QUERY: Which value of pIC50 has been reported for CO[C@@H]1C=C2[C@@H]3CC[C@H]([C@H](C)/C=C/[C@H](C)C(C)C)[C@@]3(C)CC[C@@H]2[C@@]2(C)CC[C@H](O)C[C@]12O [Compound 32] in the records?
RESULT: 5.22

###

Listing: CC50 of selected compounds
experiment: Lymphocyte viability (CCK-8); format: cell-based, mouse; settings: mouse, lymphocytes; lymphocyte viability; CCK-8

c1ccc2c3c([nH]c2c1)CNCC3 [Compound 36, tryptoline] : > 20 µM
CC(C)C(C)C(OC1OC(CO)C(O)C(O)C1O)C(O)C(C)C1CCC2=C3C=CC4=CC(=O)CCC4(C)C3CCC21C (centres unmarked) [Compound 41] : > 20 µM
CCc1ccc2occ(COC)c(=O)c2c1 [Compound 11] : > 20 µM
CO[C@@H]1C=C2[C@@H]3CC[C@H]([C@H](C)/C=C/[C@H](C)C(C)C)[C@@]3(C)CC[C@@H]2[C@@]2(C)CC[C@H](O)C[C@]12O [Compound 32] : > 20 µM

QUERY: What value of CC50 has been recorded for this entry: C[C@@H]1C[C@H]2[C@@H]3CCC4=CC(=O)C=C[C@]4(C)[C@@]3(F)[C@@H](O)C[C@]2(C)[C@@]1(O)C(=O)CO [Dex, dexamethasone, reference compound]
RESULT: 0.2 µM
